Parameter pIC50: see the listing below.
measured.on: DNA gyrase (Escherichia coli, UniProt P0AES4+P0AES6)
test.details: Inhibition of Escherichia coli DNA gyrase assessed as reduction in enzyme-mediated DNA supercoiling using relaxed pBR322 substrate incubated for 60 mins by electrophoresis method
Value format note: pIC50 is -log10 of concentration (mol/L); just state the number.

Before answering, review these 4 worked examples.
item.smiles: O=C1OCC(OCCN2CCN(c3cc4c(cc3F)c(=O)c(C(=O)O)cn4C3CC3)CC2)=C1c1ccccc1
pIC50: 5.24
--
item.smiles: O=C1OCC(OCCN2CCN(c3cc4c(cc3F)c(=O)c(C(=O)O)cn4C3CC3)CC2)=C1c1ccccc1F
pIC50: 5.94
--
item.smiles: O=C1OCC(OCCN2CCN(c3cc4c(cc3F)c(=O)c(C(=O)O)cn4-c3ccc(F)cc3)CC2)=C1c1ccccc1F
pIC50: 5.43
--
item.smiles: O=C1OCC(OCCN2CCN(c3cc4c(cc3F)c(=O)c(C(=O)O)cn4-c3ccc(F)cc3)CC2)=C1c1ccccc1Cl
pIC50: 5.39

Let's switch to this compound now.
Query :: Requested read-out pIC50, target or system DNA gyrase (Escherichia coli, UniProt P0AES4+P0AES6), entry `O=C1OCC(OCCN2CCN(c3cc4c(cc3F)c(=O)c(C(=O)O)cn4C3CC3)CC2)=C1c1ccc(F)cc1`
Result :: 5.55

Reference for the values: ChEMBL document CHEMBL3297693
